src = ChEMBL document CHEMBL1125524

- System: Rattus norvegicus
- experiment.summary: Ratio of urinary excretion value (Na+ concentration) in treated rats to that in control rats, at a peroral dose of 25 mg/Kg
- Format: functional, Urine
Consider the following molecules; for each one, report its T/C.
Please reply with the value in numeric form only.

Answer with the recorded T/C of CCCn1c(=O)c2c(nc(C(C3CC3)C3CC3)n2CC)n(CCC)c1=O only.
2.14

Answer with the recorded T/C of CCCn1c(=O)c2c(nc(C3CCCC3)n2C)n(CCC)c1=O only.
1.07

Answer with the recorded T/C of CCCn1c(=O)c2nc(C3CC4CCC3C4)[nH]c2n(CCC)c1=O (stereo in doubt; 20) only.
2.06

Answer with the recorded T/C of CCCn1c(=O)c2nc(C(C3CC3)C3CC3)[nH]c2n(CCC)c1=O only.
2.16

Answer with the recorded T/C of CCCn1c(=O)c2nc(C3CC4C=CC3C4)[nH]c2n(CCC)c1=O (stereo in doubt; 18) only.
2.09

Answer with the recorded T/C of CCCn1c(=O)c2nc(C3C(C)(C)CCC3(C)C)[nH]c2n(CCC)c1=O only.
1.18

====

- Tested on: Rattus norvegicus
- experiment.summary: Ratio of sodium ion/potassium ion concentration in treated rats to that in control rats, at a peroral dose of 1.6 mg/Kg
- Type: functional
endpoint: Na+/K+

Answer with the recorded Na+/K+ of CCCn1c(=O)c2nc(C(C3CC3)C3CC3)[nH]c2n(CCC)c1=O only.
1.56

Answer with the recorded Na+/K+ of CC(C)Cn1c(=O)n(C)c(=O)c2[nH]c(C34CC5CC(CC3C5)C4)nc21 only.
1.73

Answer with the recorded Na+/K+ of FC(F)(F)c1nnc2c(NC3CCCC3)nc3ccc(Cl)cc3n12 only.
0.98

Answer with the recorded Na+/K+ of Cn1c(=O)c2nc(C(C3CC3)C3CC3)[nH]c2n(C)c1=O only.
1.18

Answer with the recorded Na+/K+ of CCCn1c(=O)c2nc(C34CC5CC(CC(C5)C3)C4)[nH]c2n(CCC)c1=O only.
1.22

Answer with the recorded Na+/K+ of CCCn1c(=O)c2nc(C3CC4CCC3C4)[nH]c2n(CCC)c1=O (stereo in doubt; 19) only.
2.04

Answer with the recorded Na+/K+ of CCCCn1c(=O)c2nc(C3CCCC3)[nH]c2n(CCCC)c1=O only.
1.32

Answer with the recorded Na+/K+ of Cn1c(=O)c2nc[nH]c2n(C)c1=O.O [THEOPHYLLINE] only.
1.06

Answer with the recorded Na+/K+ of CCCn1c(=O)c2[nH]c(C3CCCC3)nc2n(CCC)c1=O only.
1.57

Answer with the recorded Na+/K+ of CCn1c(=O)c2nc(C(C3CC3)C3CC3)[nH]c2n(CC)c1=O only.
1.71

Answer with the recorded Na+/K+ of CCCCn1c(=O)c2nc(C(C3CC3)C3CC3)[nH]c2n(CCCC)c1=O only.
1.66

Answer with the recorded Na+/K+ of CCCCn1c(=O)c2nc(C34CC5CC(CC3C5)C4)[nH]c2n(CCCC)c1=O only.
1.61

Answer with the recorded Na+/K+ of CC(C)Cn1c(=O)n(C)c(=O)c2[nH]c(C3CCCC3)nc21 only.
1.57

Answer with the recorded Na+/K+ of CCCn1c(=O)c2nc(C[C@H]3CC4CCC3C4)[nH]c2n(CCC)c1=O (some centres undefined) only.
0.85

Answer with the recorded Na+/K+ of Cn1c(=O)c2nc(-c3ccccc3)[nH]c2n(C)c1=O [8-PHENYL THEOPHYLLINE] only.
0.87

Answer with the recorded Na+/K+ of CCCn1c(=O)c2nc(C3C(C)(C)CCC3(C)C)[nH]c2n(CCC)c1=O only.
1.12

Answer with the recorded Na+/K+ of Cn1c(=O)c2nc(C34CC5CC(CC3C5)C4)[nH]c2n(C)c1=O only.
1.67

Answer with the recorded Na+/K+ of CC(C)Cn1c(=O)n(C)c(=O)c2[nH]c(C(C3CC3)C3CC3)nc21 only.
1.37

Answer with the recorded Na+/K+ of Cn1c(=O)c2nc(C3CCCC3)[nH]c2n(C)c1=O [8-CYCLOPENTYLTHEOPHYLLINE] only.
1.12
